- testTarget: T1, 4H324-AA
- T1 chain: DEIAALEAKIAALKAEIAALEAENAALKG
- testDetails: two-hybrid library CCmax;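 note: natural log of median RNA to DNA barcode read ratio; higher means stronger binding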
- settings: mean of both orientations
Below, each entry is listed with its recorded interaction score.

Reference set, count: 3
DEIAALEAENAALEAEIAALEAKIAALEG [4H133-AA]    -0.986
DENAALEAKIAALKAKIAALEAKNAALKG [4H1384-AA]    0.82
DKIAALKAKNAALEAEIAALEAENAALEG [4H2947-AA]    -1.49

Lookup: Item under review: DEIAALEAENAALKAKIAALKAENAALEG [4H235-AA] . Reported interaction score?
Found: -1.12

Lookup: Now give it for DENAALKAKIAALKAENAALEAKIAALKG [4H1878-AA] too.
Found: 0.44

Lookup: Now give it for DENAALEAKNAALEAKIAALKAEIAALEG [4H1449-AA] too.
Found: -0.72

Lookup: Now give it for DKIAALKAKNAALEAENAALEAEIAALEG [4H2961-AA] too.
Found: -1.69

Lookup: Now give it for DENAALEAENAALKAKIAALKAKIAALKG [4H1262-AA] too.
Found: -1.15

Lookup: Now give it for DKIAALKAKIAALKAENAALEAKNAALEG [4H2903-AA] too.
Found: -0.202

Lookup: Now give it for DEIAALEAENAALKAKNAALKAEIAALEG [4H249-AA] too.
Found: -1.59

Lookup: Now give it for DKIAALKAEIAALEAKIAALKAENAALKG [4H2604-AA] too.
Found: 2.07

Value source: paper PMC10397247
